Values from paper PMC9090415

Please provide measured % inhibition Apol 40' for the entries that follow.
Biological target: P. falciparum apicoplast DNA polymerase (Pf-apPOL) (Plasmodium falciparum, UniProt Q8ILY1)
Sequence (Q8ILY1 entry or part of it): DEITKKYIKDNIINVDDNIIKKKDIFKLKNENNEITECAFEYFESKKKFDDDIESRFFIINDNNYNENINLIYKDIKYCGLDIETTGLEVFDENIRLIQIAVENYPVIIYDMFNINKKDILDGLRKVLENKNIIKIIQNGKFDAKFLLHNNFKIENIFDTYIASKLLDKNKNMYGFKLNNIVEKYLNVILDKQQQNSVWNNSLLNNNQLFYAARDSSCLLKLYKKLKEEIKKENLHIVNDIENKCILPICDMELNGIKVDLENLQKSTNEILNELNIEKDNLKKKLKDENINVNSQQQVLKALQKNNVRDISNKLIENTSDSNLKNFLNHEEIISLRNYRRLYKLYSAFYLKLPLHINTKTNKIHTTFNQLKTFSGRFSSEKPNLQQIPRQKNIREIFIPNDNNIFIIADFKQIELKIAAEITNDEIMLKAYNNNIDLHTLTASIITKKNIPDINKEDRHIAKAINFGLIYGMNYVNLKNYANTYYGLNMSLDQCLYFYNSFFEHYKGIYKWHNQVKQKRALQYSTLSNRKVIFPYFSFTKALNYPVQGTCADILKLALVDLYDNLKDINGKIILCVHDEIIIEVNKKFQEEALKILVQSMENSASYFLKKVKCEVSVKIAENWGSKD
Assay: Fluorescence-based high-throughput DNA polymerase assay (molecular beacon), primary screen and dose-response;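 as to % inhibition Apol 40': compound concentration given in µM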
Type: biochemical
Conditions: conc 20 (unit not given); 40'; DRC-2
Write the answer as a number in %, unit excluded.

Please indicate % inhibition Apol 40' recorded for CN(C)C=C1SCc2ccccc2C1=O
26

Please indicate % inhibition Apol 40' recorded for CC1=NNC(=O)C1Oc1ccc(Cl)cc1Cl (stereo not shown)
26

Please indicate % inhibition Apol 40' recorded for O=C(O)CC1SC(c2ccc3c(c2)OCO3)=NC1=O (stereo not shown)
23

Please indicate % inhibition Apol 40' recorded for CCOc1ccccc1-c1nc(-c2ccc(=O)[nH]c2)no1 [Molecule 76, CCOc1ccccc1c1onc(n1)c1ccc(=O)[nH]c1]
30

---

Molecular target: P. falciparum apicoplast DNA polymerase (Pf-apPOL) (Plasmodium falciparum, UniProt Q8ILY1)
Test: Fluorescence-based high-throughput DNA polymerase assay (molecular beacon), primary screen and dose-response;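 as to % inhibition apPOL 180': test concentration in µM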
Assay type: biochemical
Details: DRC-1; 180'; concentration 80
Lab note: anything with % inhibition apPOL 180' at or over 80% counts as 1.0; the rest go in 0.0.

Is % inhibition apPOL 180' for O=C(Nc1ncc([N+](=O)[O-])s1)c1ccc2c(c1)C(=O)N(N1C(=O)c3ccccc3C1=O)C2=O at or above 80%?
0.0

Is % inhibition apPOL 180' for NC(=O)c1cc[n+](CC2=C(C(=O)[O-])N3C(=O)[C@@H](NC(=O)[C@@H](c4ccccc4)S(=O)(=O)[O-])[C@H]3SC2)cc1.[Na+] at or above 80%?
1.0

Is % inhibition apPOL 180' for CC(NC(=O)Cc1cc(=O)[nH]c(SCc2cccc(Cl)c2)n1)c1ccccc1 (centres unmarked) at or above 80%?
0.0

Is % inhibition apPOL 180' for CCOC(=O)C(NCc1ccco1)(NC(=O)c1ccco1)C(F)(F)F (centres unmarked) at or above 80%?
0.0

Is % inhibition apPOL 180' for COc1ccc(C=C2Oc3c(ccc4c3CN(c3ccc5c(c3)OCO5)CO4)C2=O)cc1OC at or above 80%?
1.0

Is % inhibition apPOL 180' for CC1=NNC(=O)C1Oc1ccc(Cl)cc1Cl (centres unmarked) at or above 80%?
0.0

Is % inhibition apPOL 180' for CC1(C)CC(=O)C2=C(C1)OC1=C(C(=O)CC(C)(C)C1)C2c1ccc(O)cc1 at or above 80%?
0.0

---

Target: P. falciparum apicoplast DNA polymerase (Pf-apPOL) (Plasmodium falciparum, UniProt Q8ILY1)
Assay: Fluorescence-based high-throughput DNA polymerase assay (molecular beacon), primary screen and dose-response;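 as to % inhibition apPOL 180': test concentration in µM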
Assay type: biochemical
Conditions: DRC-1; 180'; concentration 10
endpointName: % inhibition apPOL 180' (%)
Write the answer as a number in %, unit excluded.

Please indicate % inhibition apPOL 180' recorded for O=C(Cn1ccc2c(=O)[nH]ccc21)Nc1cc(F)ccc1F [Molecule 42, O=C(Cn1ccc2c1cc[nH]c2=O)Nc1cc(F)ccc1F]
18.2291

Please indicate % inhibition apPOL 180' recorded for O=C(Nc1nnc(-c2ccno2)o1)c1ccc2ncsc2c1
-4.993

Please indicate % inhibition apPOL 180' recorded for Cn1nc(C(=O)N2CCc3c(nc4cc(-c5ccccc5)[nH]n4c3=O)C2)c2ccccc21
33

Please indicate % inhibition apPOL 180' recorded for Cl.NC(CO)C(=O)NNCc1ccc(O)c(O)c1O (centres unmarked)
43.7705

Please indicate % inhibition apPOL 180' recorded for CS(=O)(=O)c1cccc(C(=O)Nc2nnc(-c3ccno3)o2)c1
0.8537

Please indicate % inhibition apPOL 180' recorded for CCCCSc1nnc2c(n1)OC(c1ccc([N+](=O)[O-])o1)Nc1ccccc1-2 (centres unmarked)
30.0435

Please indicate % inhibition apPOL 180' recorded for CSC(C)C(=O)C=CN(C)C (centres unmarked)
-3.723

Please indicate % inhibition apPOL 180' recorded for O=C1N/C(=N/c2ccccc2Cl)S/C1=C/c1ccc([N+](=O)[O-])o1
15.4402

Please indicate % inhibition apPOL 180' recorded for O=C(CSc1nnc(-c2ccco2)[nH]1)c1ccc(Cl)cc1
30.1123

Please indicate % inhibition apPOL 180' recorded for O=c1[nH]c2ccc([N+](=O)[O-])cc2c(-c2ccccc2)c1Sc1nc2ccccc2o1
8.363

Please indicate % inhibition apPOL 180' recorded for CC(C)(C)c1cc(C(=O)C(C#N)=NNc2cccc(Cl)c2)no1
46.8466

Please indicate % inhibition apPOL 180' recorded for O=C(Nc1ncc([N+](=O)[O-])s1)c1ccc2c(c1)C(=O)N(N1C(=O)c3ccccc3C1=O)C2=O
13.1954

Please indicate % inhibition apPOL 180' recorded for Cc1cccc(CC(=O)N2CCc3c(nc4cc(-c5ccccc5)[nH]n4c3=O)C2)c1
32

Please indicate % inhibition apPOL 180' recorded for Nc1c(S(=O)(=O)O)cc(Nc2ccccc2)c2c1C(=O)c1ccccc1C2=O
27.7566

Please indicate % inhibition apPOL 180' recorded for CCCCCCCCCCCCCCCCCC(=O)CCN(C)C
10.3787

Please indicate % inhibition apPOL 180' recorded for NC(=O)c1cc[n+](CC2=C(C(=O)[O-])N3C(=O)[C@@H](NC(=O)[C@@H](c4ccccc4)S(=O)(=O)[O-])[C@H]3SC2)cc1.[Na+]
40.8592

Please indicate % inhibition apPOL 180' recorded for COc1ccc(NC(=O)Cn2ccc3c(=O)[nH]ccc32)cc1 [Molecule 13, COc1ccc(cc1)NC(=O)Cn1ccc2c1cc[nH]c2=O]
35.4263
